Catalogue of LD50 readings, one per entry.
- experiment: Acute toxicity LD50 oral vs i.p. and B/P ratio, rat
- Assay type: in vivo
- protocol conditions: in vivo; Sprague-Dawley I.O.P.S. rat, oral; read-out: LD50 by gastric tubage (B)

molecule: Cc1ncc(CO)c(C=NCCCS(=O)(=O)O)c1O [Example 14]
unit of measure: µmol/kg
LD50: 4200
//
molecule: Cc1ncc(CO)c(C=NCCS(=O)(=O)O)c1O [Example 13]
unit of measure: µmol/kg
LD50: 3300

----------
Catalogue of B/P ratio (oral LD50 / i.p. LD50) readings, one per entry.
- Tested on: Swiss I.O.P.S. mice
- experiment: in vivo
- protocol conditions: Swiss I.O.P.S. mouse

compound: Cc1ncc(CO)c(C=NCCCS(=O)(=O)O)c1O [Example 14]
B/P ratio (oral LD50 / i.p. LD50): 1.24
--
compound: Cc1ncc(CO)c(C=NCCS(=O)(=O)O)c1O [Example 13]
B/P ratio (oral LD50 / i.p. LD50): 1.17
--
compound: Cc1ncc(CO)c(C=NCCS(=O)(=O)O)c1O [Example 11]
B/P ratio (oral LD50 / i.p. LD50): 2.96
--
compound: [Ca+2].[Cl-].[Cl-] [CaCl2, reference compound]
B/P ratio (oral LD50 / i.p. LD50): > 9.2
--
compound: [Cl-].[Cl-].[Mg+2] [magnesium chloride, reference compound]
B/P ratio (oral LD50 / i.p. LD50): 2.04
--
compound: [Cl-].[K+] [potassium chloride, reference compound]
B/P ratio (oral LD50 / i.p. LD50): > 7.25
--
compound: Cc1ncc(CO)c(C=NCCS(=O)(=O)O)c1O [Example 3]
B/P ratio (oral LD50 / i.p. LD50): 1.79
--
compound: Cc1ncc(CO)c(C=NCCCS(=O)(=O)O)c1O [Example 7]
B/P ratio (oral LD50 / i.p. LD50): 1.75
--
compound: Cc1ncc(CO)c(C=NCCCS(=O)(=O)O)c1O [Example 12]
B/P ratio (oral LD50 / i.p. LD50): 3.3

----------
- Tested on: Swiss I.O.P.S. mice
- experiment: in vivo
- protocol conditions: Swiss I.O.P.S. mouse, oral
observable: LD50 by gastric tubage (B) (mmol/kg)

compound: Cc1ncc(CO)c(C=NCCCS(=O)(=O)O)c1O
reported value: 7.0
//
compound: Cc1ncc(CO)c(C=NCCS(=O)(=O)O)c1O
reported value: 7.0
//
compound: [Cl-].[Cl-].[Mg+2] [magnesium chloride, reference compound]
reported value: 19.2

----------
- experiment: Solubility
- Assay type: physicochemical
- protocol conditions: water

compound: Cc1ncc(CO)c(C=NCCCS(=O)(=O)O)c1O [Example 12]
solubility in water: Soluble
//
compound: Cc1ncc(CO)c(CNCCCS(=O)(=O)[O-])c1O.[Na+]
solubility in water: Soluble
//
compound: Cc1ncc(CO)c(CNCCS(=O)(=O)[O-])c1O.[Na+] [Example 2]
solubility in water: Soluble
//
compound: Cc1ncc(CO)c(C=NCCCS(=O)(=O)O)c1O [Example 14]
solubility in water: Soluble
//
compound: Cc1ncc(CO)c(C=NCCCS(=O)(=O)O)c1O [Example 7]
solubility in water: Soluble
//
compound: Cc1ncc(CO)c(C=NCCS(=O)(=O)O)c1O [Example 9]
solubility in water: Soluble
//
compound: Cc1ncc(CO)c(C=NCCCS(=O)(=O)O)c1O [Example 5]
solubility in water: Soluble
